# Species on record: Rattus norvegicus
# protocol: Open TG-GATES - Regimen: Daily Repeat
# Assay type: toxicity, organism-based, Sprague-Dawley
# Parameters: regimen Daily Repeat, gender Male, age 6 weeks
# conditionDetails: in vivo, po, 300 mg/kg, 72 h, tissue Plasma, route gavage, dose level Middle, time 3 day
Consider the following compounds and their measured RALB readings.

| compound | unitOfMeasurement | RALB |
| --- | --- | --- |
| NC(N)=Nc1nc(CSCCC(N)=NS(N)(=O)=O)cs1 | g/dL | 3.5 |
| CCOc1ccc(NC(=O)CC(C)O)cc1 (stereo not given) | g/dL | 2.7 |
| CCOC(=O)CCC(=O)O[C@H]1[C@H](O[C@@H]2[C@@H](C)[C@H](O[C@H]3C[C@@](C)(OC)[C@@H](O)[C@H](C)O3)[C@@H](C)C(=O)O[C@H](CC)[C@@](C)(O)[C@H](O)[C@@H](C)C(=O)[C@H](C)C[C@@]2(C)O)O[C@H](C)C[C@@H]1N(C)C [ERYTHROMYCIN ETHYLSUCCINATE] | g/dL | 3 |
| COC1=CC(=O)C[C@@H](C)[C@]12Oc1c(Cl)c(OC)cc(OC)c1C2=O | g/dL | 3.4 |
| COc1ccc2[nH]c([S+]([O-])Cc3ncc(C)c(OC)c3C)nc2c1 (stereo not given) | g/dL | 3.4 |

Source of measurements: ChEMBL document CHEMBL3885861
